Measured values drawn from PubChem BioAssay AID1411 for this set.

- Target Or System: Signal transducer and activator of transcription 1-alpha/beta (Homo sapiens) (UniProt P42224)
- Sequence (P42224 whole entry, looked up): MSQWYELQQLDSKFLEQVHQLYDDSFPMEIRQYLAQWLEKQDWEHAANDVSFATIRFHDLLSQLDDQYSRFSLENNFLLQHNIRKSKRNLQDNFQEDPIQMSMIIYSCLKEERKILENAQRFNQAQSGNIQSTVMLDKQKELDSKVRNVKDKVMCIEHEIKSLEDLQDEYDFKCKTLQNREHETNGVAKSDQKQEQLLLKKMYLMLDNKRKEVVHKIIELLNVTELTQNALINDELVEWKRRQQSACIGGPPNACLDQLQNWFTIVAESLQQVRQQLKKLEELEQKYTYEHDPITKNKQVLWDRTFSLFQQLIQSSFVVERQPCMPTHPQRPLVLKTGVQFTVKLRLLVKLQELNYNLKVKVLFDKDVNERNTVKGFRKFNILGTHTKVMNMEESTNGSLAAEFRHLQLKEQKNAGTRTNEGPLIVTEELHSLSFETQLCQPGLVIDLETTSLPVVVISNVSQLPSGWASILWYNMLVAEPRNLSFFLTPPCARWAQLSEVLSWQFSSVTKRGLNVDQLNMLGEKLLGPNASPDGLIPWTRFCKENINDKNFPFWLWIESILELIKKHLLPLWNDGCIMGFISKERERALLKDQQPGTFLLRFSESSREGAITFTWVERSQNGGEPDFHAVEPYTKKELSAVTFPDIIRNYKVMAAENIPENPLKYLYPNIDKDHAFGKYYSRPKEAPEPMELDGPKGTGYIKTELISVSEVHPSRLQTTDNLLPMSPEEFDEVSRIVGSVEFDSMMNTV
- Procedure Summary: STAT1 reporter inhibitors, potency curves, dose response, counter-screen for STAT3 inhibitor project, cell-based, NIH 3T3, luciferase reporter (AID 1411)
- Condition Info: NIH 3T3 fibroblasts, counterscreen
The source made the active and inactive calls. How the calls were made is not given here.
Field 'call' accepts y for active, n for inactive

How did this test come out for CCOC(=O)c1sc2nc(CC(=O)OC)nc(NCc3ccc(Cl)cc3)c2c1C ?
n

Recorded call for CCOC(=O)c1ccc(NC(=O)c2ccc(CN3CCOCC3)cc2)cc1 ?
n

Lab log entry: CCCCCCCc1ccc(-c2ccc(O)cc2)nc1 — outcome as called in the assay?
n

Hi, sorry to bother you, what did the test record for Cc1ccc(N2C(=O)c3ccccc3C2O)nc1 (centres undefined) ?
n

Field: outcome | Entry: CNC(=O)Oc1cccc(-c2cn3cc(Cl)ccc3n2)c1
n

Assay result, entry Cc1ccc(-c2cn3cc([N+](=O)[O-])ccc3n2)cc1 — outcome?
n

Recorded test call requested for O=c1c2c(nc3n1CCCCC3)sc1c(O)cccc12
n

Entry CCC(C)(C)c1ccc(OCCCC[n+]2cccc(C)c2)c(C(C)(C)CC)c1 : call = ?
n

Identify the outcome logged in this assay for the molecule shown: Clc1ccc(CSc2nnc(Cn3cnc4ccccc43)o2)cc1
n

What is the recorded call for this molecule in the test? CCOc1ncccc1C(=O)OCC(=O)Nc1ccc(-c2nc3ccc(C)cc3s2)cc1
n

Name the outcome recorded for Cc1nc2ccccc2cc1OCc1ccc(F)cc1 in the assay.
n

Would you mind telling me which call this test gave Cc1csc(NC(=O)c2cc3c(s2)CCCC3)n1 ?
n

Outcome logged for COc1ccc(CC(=O)Nc2cccc(-c3nnc(-c4cccc(C)c4)o3)c2)cc1OC in this assay:
n

# fetch the recorded call for CN1/C(=C\C(=O)C[n+]2ccc3ccccc3c2)C(C)(C)c2ccccc21 here
n

In this assay, the call recorded for O=C(NC1CC1)c1cc2c(s1)-c1ccccc1OC2 was what?
n

Please indicate how the test categorized Cc1cccc(N2CCN(C(=O)CSCc3c(C)noc3C)CC2)c1C .
n

Hello, I am checking results. What call was entered for Cc1ccc(S(=O)(=O)N(C)c2ccc(C(=O)N3CCN(Cc4ccc5c(c4)OCO5)CC3)cc2)cc1 ?
n

Write down the call the test reported for this molecule. Item: O=C(Oc1cccc(Nc2ncnc3ccccc23)c1)c1ccccc1Cl
n

Hello, I am checking results. What call was entered for Cc1cc(OCC(=O)Nc2ccncc2)ccc1Br ?
n

How did this test come out for Cc1nc(CNS(=O)(=O)c2ccc(Oc3ccccc3)cc2)cs1 ?
n

Per the assay record, what outcome was assigned to O=C(Nc1nccs1)c1ccc(S(=O)(=O)NCC2CCCCC2)cc1 ?
n

What did this assay record as the result for COc1ccc2nc3c(cc2c1)c(NC(=O)c1cccs1)nn3CC(C)C ?
n

Answer briefly: the call reported for COC(=O)c1nn(-c2ccc3c(c2)CCN3C(C)=O)cc1O in this assay.
y

Call for entry C[C@H]1O[C@@H](O[C@H]2[C@@H](O)C[C@H](O[C@H]3[C@@H](O)C[C@H](O[C@H]4CC[C@@]5(C)[C@H](CC[C@@H]6[C@@H]5C[C@@H](O)[C@]5(C)[C@@H](C7=CC(=O)OC7)CC[C@]65O)C4)O[C@@H]3C)O[C@@H]2C)C[C@H](O)[C@@H]1O :
n

For O=C1C2C3c4ccccc4C(c4ccccc43)C2c2nc3ccccc3n21 (centres undefined) , which call appears in the assay record?
n

Which result was noted for this molecule in the test: CC(=O)c1ccc(N=Nc2ccc(C)cc2)cc1
n

I'd appreciate the recorded outcome for CCOC(=O)Cc1csc(SCC(=O)c2c(N)n(CC(C)C)c(=O)n(C)c2=O)n1 from this test.
n

Please share the test call associated with COc1ccc(-c2nn(C)c(=O)c3ccccc23)cc1NC(=O)COc1ccc(C)cc1 .
n

Kindly provide the recorded test outcome for the following molecule: CSc1ccc(NC(=O)N2CCN(c3nc4ccccc4s3)CC2)cc1
n
